# Test system: Saccharomyces cerevisiae;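 also: PSI is a weighted mean of sequencing reads over stability bins, variants kept only with over 10 reads, mCherry proximal and sfGFP distal, peptide attached via GGGS linker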
# EXPERIMENTAL DETAILS: protein stability index of tFT-peptide fusion (C-terminal peptide) (PSI (0-1 scale)); higher = more stable (slower turnover)
# EXPERIMENTAL PARAMETERS: genetic background: das1 deletion; temperature: 37 C
// protein stability index lookup, one value per entry

RESIDUES: RGYSAIWGCKMN
protein stability index: 0.74

RESIDUES: YPVGAAFIRARA
protein stability index: 0.538

RESIDUES: VPSPWVFSLFLH
protein stability index: 0.73

RESIDUES: FLSLSFLLLHFP
protein stability index: 0.535

RESIDUES: FLIYMFRHCFFH
protein stability index: 0.676

RESIDUES: WLGLFAFRRCLV
protein stability index: 0.59

RESIDUES: RLSLCLAVLFLV
protein stability index: 0.647

RESIDUES: LKCFLVLTFWFS
protein stability index: 0.367

RESIDUES: FLAPPFLPPPPA
protein stability index: 0.758

RESIDUES: RRPVHTHTSVSP
protein stability index: 0.733

RESIDUES: ASICAFFCWFLV
protein stability index: 0.601

RESIDUES: FWCVFVFFVCVG
protein stability index: 0.399

RESIDUES: GTEFSNVITYLV
protein stability index: 0.775

RESIDUES: RFWFTFYLIAVF
protein stability index: 0.203

RESIDUES: VMRMVWVLGVMC
protein stability index: 0.405

RESIDUES: PRFLRWLFSLLI
protein stability index: 0.769

RESIDUES: GLSWRLVWVVII
protein stability index: 0.189

RESIDUES: PPSRVSIRLLIR
protein stability index: 0.461

RESIDUES: FLMCVFFLCFSN
protein stability index: 0.472

RESIDUES: DIGCLWSKTRLC
protein stability index: 0.763

RESIDUES: YVQTKKTRYVLV
protein stability index: 0.543

RESIDUES: AYACSILRCKSS
protein stability index: 0.713

RESIDUES: FCVLLFFFPLII
protein stability index: 0.402

RESIDUES: SVMTFVFFISAF
protein stability index: 0.438

RESIDUES: LRFSLLRVGWLC
protein stability index: 0.732

RESIDUES: SRLVIGRWSVLV
protein stability index: 0.635

RESIDUES: CGLLWFYSFFLF
protein stability index: 0.519

RESIDUES: VWFFLLSFANRL
protein stability index: 0.517

RESIDUES: GSITFFKMVQSG
protein stability index: 0.744

RESIDUES: GGVVAACRGGIG
protein stability index: 0.394

RESIDUES: KCEKGLYCCIAF
protein stability index: 0.664

RESIDUES: RLLLLPGPLALQ
protein stability index: 0.7

RESIDUES: FRCFVLPYFGRF
protein stability index: 0.7

RESIDUES: YVDSGLTLIHLA
protein stability index: 0.72

RESIDUES: VPSMSIVWCRVL
protein stability index: 0.511

RESIDUES: GCVMSVCSLAVS
protein stability index: 0.566

RESIDUES: FRDRFLRWNLVS
protein stability index: 0.757

RESIDUES: CAGRQGRERGHT
protein stability index: 0.722

RESIDUES: LIRDLLYMAVLV
protein stability index: 0.357

RESIDUES: KIVNNTKKNKCH
protein stability index: 0.738

RESIDUES: SFTVFVVLLFPP
protein stability index: 0.476

RESIDUES: PPLPPPPPHPPP
protein stability index: 0.521

RESIDUES: SSVCLYWCCLFV
protein stability index: 0.535

RESIDUES: FPFFLLAAPFLA
protein stability index: 0.644

RESIDUES: SLRSLYLLARLS
protein stability index: 0.732

RESIDUES: LVCLPVGFFLMW
protein stability index: 0.634

RESIDUES: FSFPAFTFIVSI
protein stability index: 0.475

RESIDUES: AGALAVALPCIC
protein stability index: 0.531

RESIDUES: ICWVSLYFSMLV
protein stability index: 0.507

RESIDUES: FVVWKDVLVMVR
protein stability index: 0.286

RESIDUES: CPVSFSFCLKVL
protein stability index: 0.468

RESIDUES: LYTFCSMDANPM
protein stability index: 0.383

RESIDUES: FNMLFVVRLLYM
protein stability index: 0.473

RESIDUES: FSICGFYSLCFG
protein stability index: 0.628

RESIDUES: WEISNFFGCFIG
protein stability index: 0.772

RESIDUES: VFRLLALLWRFF
protein stability index: 0.767

RESIDUES: LFWPPCYLFFCL
protein stability index: 0.677

RESIDUES: FCFCLVLRVFLG
protein stability index: 0.272

RESIDUES: GGVWSAFAVWVC
protein stability index: 0.446

RESIDUES: FFLFILYFGSCF
protein stability index: 0.481

RESIDUES: PPPPPSRPFSPP
protein stability index: 0.71

RESIDUES: FASALAPLSAVA
protein stability index: 0.529

RESIDUES: CFGFMFLLLFDV
protein stability index: 0.448

RESIDUES: GSRRYYFTWVYQ
protein stability index: 0.722

RESIDUES: FRVILISACESV
protein stability index: 0.556

RESIDUES: YFFFYFFLLFHL
protein stability index: 0.45

RESIDUES: PFGPTFSPRPFR
protein stability index: 0.779

RESIDUES: GGHGGRRRKGVG
protein stability index: 0.435

RESIDUES: LIVCVKAITIVS
protein stability index: 0.0917

RESIDUES: VVVVWVVVEIVR
protein stability index: 0.279

RESIDUES: SPLLPPPLLFLS
protein stability index: 0.729

RESIDUES: PLHPSSTPATPF
protein stability index: 0.745

RESIDUES: YFFFFLHFNFAF
protein stability index: 0.35

RESIDUES: WHVSLRFAFYVF
protein stability index: 0.342

RESIDUES: LSAVISLRIQLS
protein stability index: 0.546

RESIDUES: FVVGFVCSMVWG
protein stability index: 0.252

RESIDUES: LLLPVFRFFFVN
protein stability index: 0.672

RESIDUES: RPSHTSVYRLLH
protein stability index: 0.706

RESIDUES: DCLSFVLFLFLC
protein stability index: 0.392

RESIDUES: KSEKTYTYQVIQ
protein stability index: 0.716

RESIDUES: VLVSYAIVILYL
protein stability index: 0.293

RESIDUES: LLTAARAQLFAV
protein stability index: 0.7
